The reported numbers originate from the supplement of paper PMC11208160.

# measurement.protocol: recombinant UMI read abundance after kanamycin selection (control-corrected) (log10(CPM+1)); higher = more efficient recombination; extreme values may be limits of the assay; sequences stand for … in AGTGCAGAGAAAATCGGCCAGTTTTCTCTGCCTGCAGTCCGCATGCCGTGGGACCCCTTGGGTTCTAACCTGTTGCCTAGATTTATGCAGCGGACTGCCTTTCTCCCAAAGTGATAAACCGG…AGGTTGGTTTCACT; site = the 11-nt donor
experimental.readout: recombinant UMI read abundance (log10)
A bare number is all that is needed in reply.

Prompt: Supply recombinant UMI read abundance (log10) value. Item: ATTGAGACATGGACCGGTTTTCCCGGTAATCCGTATTTGGT (site ATTGAGACTCC)
Completion: 0.379

Prompt: Supply recombinant UMI read abundance (log10) value. Item: CTATAAACATGGACCGGTTTTCCCGGTAATCCGTATTTGGA (site CTATAAACTTC)
Completion: 2.34

Prompt: Supply recombinant UMI read abundance (log10) value. Item: GCGAGAACATGGACCGGTTTTCCCGGTAATCCGTATTTGCT (site GCGACAACTAG)
Completion: 0

Prompt: Supply recombinant UMI read abundance (log10) value. Item: CCTAGAGCATGGACCGGTTTTCCCGGTAATCCGTATTTGAT (site CCTAAAGCTAT)
Completion: 0

Prompt: Supply recombinant UMI read abundance (log10) value. Item: AATCACCCATGGACCGGTTTTCCCGGTAATCCGTATTTGCT (site AATCACCCTAG)
Completion: 0.532

Prompt: Supply recombinant UMI read abundance (log10) value. Item: AATGTAACATGGACCGGTTTTCCCGGTAATCCGTATTTGGT (site AATGTAACTAG)
Completion: 0

Prompt: Supply recombinant UMI read abundance (log10) value. Item: CCACTAACATGGACCGGTTTTCCCGGTAATCCGTATTTGGA (site CCACTAACTTC)
Completion: 0.235

Prompt: Supply recombinant UMI read abundance (log10) value. Item: AGGTTCCCATGGACCGGTTTTCCCGGTAATCCGTATTTGTA (site AGGTTCCCTGA)
Completion: 0

* * *

# measurement.protocol: recombinant barcode read abundance after kanamycin selection (control-corrected) (log10(CPM+1)); higher = more efficient recombination; sequences stand for … in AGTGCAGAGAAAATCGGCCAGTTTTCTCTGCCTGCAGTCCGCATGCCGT…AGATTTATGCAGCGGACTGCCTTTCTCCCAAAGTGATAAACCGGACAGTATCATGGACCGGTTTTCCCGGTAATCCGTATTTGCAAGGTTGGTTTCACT; site = the 11-nt target
Entries get a class label from measured recombinant barcode read abundance (log10). See ranges: class 1 (below 0.05), class 2 (0.05 to below 0.6), class 3 (0.6 or more)

Prompt: Band for ACTCGGCCTTGGGTTCTAACCTGTTGCGA (site ACTCGGCCTTC) ?
Completion: class 3

Prompt: Band for CTCTCGTCTTGGGTTCTAACCTGTTGCCT (site CTCTCGTCTAG) ?
Completion: class 3

Prompt: Band for CGGATGGCTTGGGTTCTAACCTGTTGCCT (site CGGATGGCTAG) ?
Completion: class 3

Prompt: Band for AGGTCCTCTTGGGTTCTAACCTGTTGCCT (site AGGTCCTCTAC) ?
Completion: class 2

Prompt: Band for TCCTGTCCTTGGGTTCTAACCTGTTGCAT (site TCCTGTACTAG) ?
Completion: class 1

Prompt: Band for ATCCATCCTTGGGTTCTAACCTGTTGCCT (site ATCCATCCTAG) ?
Completion: class 3

Prompt: Band for GTCGGAGCTTGGGTTCTAACCTGTTGCGG (site GTCGGAGCTCG) ?
Completion: class 1

Prompt: Band for CCATTCCCTTGGGTTCTAACCTGTTGCTA (site TTGACGGCTAG) ?
Completion: class 2

Prompt: Band for ACTTCCACTTGGGTTCTAACCTGTTGCCT (site CCTTCCACTAG) ?
Completion: class 1

Prompt: Band for GGGATGTCTTGGGTTCTAACCTGTTGCCT (site GAGATGTCTAG) ?
Completion: class 2

Prompt: Band for CAGGCGGCTTGGGTTCTAACCTGTTGCCT (site CAGGCGTCTAG) ?
Completion: class 2
